Please provide measured GI50 for the entries that follow.
Tested on: RPMI-8226
assayNotes: NCI tumour cell line growth inhibition, 48 h
Active and inactive are the calls of the source. No stated cut-off is given here; in the data, active = GI50 up to about 1.1 µM and inactive = higher.

Lab entry: RPMI-8226 assay, compound `N#CCN1CCOCCOCCN(CC#N)CCOCCOCC1` , GI50 = > 100 µM (inactive)

Lab entry: RPMI-8226 assay, compound CC1(c2ccc(F)cc2)C(C#N)C(=O)NC(=O)C1C#N (stereo not drawn) , GI50 = > 100 µM (inactive)

Lab entry: RPMI-8226 assay, compound `CC(C)/C(Cl)=N\OC(=O)Nc1ccc(C#N)cc1` , GI50 = 2.56 µM (inactive)
